# experimentalTarget: T1, HCV bt-134-154 (Peptide 1, HCVc 134-154) (Hepatitis C virus (numbering per HCV-1), biotin (carboxy-terminal per; N-terminal per))
# T1 peptide: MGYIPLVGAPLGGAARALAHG
# measurementDescription: EIA, captured mAb + biotin peptide
parameter: Reactivity (OD 492 nm) (OD units)
Reply numerically in OD units, unit not repeated.

| binder | Reactivity (OD 492 nm) [OD units] |
| --- | --- |
| HCV 208B-178 (antibody, V domains shown) VH: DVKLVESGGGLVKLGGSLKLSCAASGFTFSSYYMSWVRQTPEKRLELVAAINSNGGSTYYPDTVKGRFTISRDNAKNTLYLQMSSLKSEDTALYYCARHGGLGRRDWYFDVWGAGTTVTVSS VL: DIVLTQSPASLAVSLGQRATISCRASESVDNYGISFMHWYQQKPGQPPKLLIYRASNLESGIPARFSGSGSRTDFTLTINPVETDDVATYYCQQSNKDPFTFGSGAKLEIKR | 0.1 |

Look up and report measured Reactivity (OD 492 nm) for this entry: HCV 208B-826 (antibody, V domains shown) VH: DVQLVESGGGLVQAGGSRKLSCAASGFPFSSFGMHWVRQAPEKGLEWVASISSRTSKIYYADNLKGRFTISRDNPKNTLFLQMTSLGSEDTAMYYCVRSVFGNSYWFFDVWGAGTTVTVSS VL: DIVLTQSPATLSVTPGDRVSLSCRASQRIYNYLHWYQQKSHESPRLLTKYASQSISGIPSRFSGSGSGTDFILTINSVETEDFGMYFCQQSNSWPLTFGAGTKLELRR
0.53
